TEST METHOD NOTES: Optical properties (absorption, emission, extinction coefficient) of BDP635 and derivative SBDPiRs
Format: physicochemical
PROPERTY LABEL: ε

Here is how some compounds turned out for ε.
MOLECULAR STRING: F[B-]1(F)n2c(cc3sc(-c4ccccc4)cc32)C(C(F)(F)F)=C2C=c3sc(-c4ccccc4)cc3=[N+]21
ε: 120 000 M^−1 cm^−1
--
MOLECULAR STRING: F[B-]1(F)n2c(cc3sc(C=Cc4ccccc4)cc32)C(C(F)(F)F)=C2C=c3sc(C=Cc4ccccc4)cc3=[N+]21
ε: 110 000 M^−1 cm^−1
--
MOLECULAR STRING: COc1ccc(-c2cc3c(s2)=CC2=C(C(F)(F)F)c4cc5sc(-c6ccc(OC)cc6)cc5n4[B-](F)(F)[N+]=32)cc1
ε: 185 000 M^−1 cm^−1
--
MOLECULAR STRING: F[B-]1(F)n2c(cc3sc(-c4cccs4)cc32)C(C(F)(F)F)=C2C=c3sc(-c4cccs4)cc3=[N+]21
ε: 125 000 M^−1 cm^−1

So for `COc1ccc(C=Cc2cc3c(s2)=CC2=C(C(F)(F)F)c4cc5sc(C=Cc6ccc(OC)cc6)cc5n4[B-](F)(F)[N+]=32)cc1` , the logged ε turned out to be 85 000 M^−1 cm^−1

Per the records, this compound ( `COc1cc(-c2cc3c(s2)=CC2=C(C(F)(F)F)c4cc5sc(-c6cc(OC)c(OC)c(OC)c6)cc5n4[B-](F)(F)[N+]=32)cc(OC)c1OC` ) has ε equal to 140 000 M^−1 cm^−1

Value of ε reported for the compound `COc1ccc(Oc2cc3c(s2)=CC2=C(C(F)(F)F)c4cc5sc(Oc6ccc(OC)cc6)cc5n4[B-](F)(F)[N+]=32)cc1` is 118 000 M^−1 cm^−1

Briefly, ε measured for `F[B-]1(F)n2c(cc3sc(Oc4ccc(-c5ccccc5)cc4)cc32)C(C(F)(F)F)=C2C=c3sc(Oc4ccc(-c5ccccc5)cc4)cc3=[N+]21` : 83 000 M^−1 cm^−1

Value of measured ε for the entry `F[B-]1(F)n2c(cc3sc(Sc4ccccc4)cc32)C(C(F)(F)F)=C2C=c3sc(Sc4ccccc4)cc3=[N+]21` : 105 000 M^−1 cm^−1

Per the record, `Oc1ccc(-c2cc3c(s2)=CC2=C(C(F)(F)F)c4cc5sc(-c6ccc(O)cc6)cc5n4[B-](F)(F)[N+]=32)cc1` has ε of 101 000 M^−1 cm^−1
